Taken from patent US11912682B2.

target: GSPT1 (Homo sapiens (Human), UniProt P15170+Q96SW2); experiment: immunofluorescence assay for GSPT1 degradation in CAL-51 cells (Example 10); format: cell-based; conditions: CAL-51 cells, 6 h; read-out: IF Class (GSPT1 degradation DC50)
Sequence (P15170 whole entry): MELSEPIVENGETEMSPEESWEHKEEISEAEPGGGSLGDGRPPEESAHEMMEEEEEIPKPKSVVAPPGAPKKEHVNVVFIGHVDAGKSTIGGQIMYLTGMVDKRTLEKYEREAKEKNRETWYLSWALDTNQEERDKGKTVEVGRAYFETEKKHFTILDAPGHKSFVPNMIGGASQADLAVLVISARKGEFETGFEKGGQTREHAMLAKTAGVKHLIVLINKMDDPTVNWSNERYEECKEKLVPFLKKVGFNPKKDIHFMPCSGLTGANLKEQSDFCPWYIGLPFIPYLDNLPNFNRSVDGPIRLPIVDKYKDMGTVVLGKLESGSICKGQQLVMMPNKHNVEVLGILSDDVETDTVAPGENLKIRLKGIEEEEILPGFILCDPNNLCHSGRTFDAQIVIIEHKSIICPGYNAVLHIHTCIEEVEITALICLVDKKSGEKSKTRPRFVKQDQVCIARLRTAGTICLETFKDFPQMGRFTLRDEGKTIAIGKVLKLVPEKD
Sequence (Q96SW2 whole entry): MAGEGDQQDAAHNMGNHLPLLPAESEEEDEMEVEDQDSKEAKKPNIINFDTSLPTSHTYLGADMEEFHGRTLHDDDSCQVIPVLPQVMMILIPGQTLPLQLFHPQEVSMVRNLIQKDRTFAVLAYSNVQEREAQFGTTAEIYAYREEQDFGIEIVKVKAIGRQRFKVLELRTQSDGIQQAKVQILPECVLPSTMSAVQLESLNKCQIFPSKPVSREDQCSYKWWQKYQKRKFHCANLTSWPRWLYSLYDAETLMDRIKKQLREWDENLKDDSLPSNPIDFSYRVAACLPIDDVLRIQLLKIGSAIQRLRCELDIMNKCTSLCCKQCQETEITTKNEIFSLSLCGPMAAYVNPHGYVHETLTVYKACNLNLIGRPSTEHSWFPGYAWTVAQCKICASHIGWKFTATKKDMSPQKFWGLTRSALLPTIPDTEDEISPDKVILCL
Sequence (Q16531 2-1140 partner): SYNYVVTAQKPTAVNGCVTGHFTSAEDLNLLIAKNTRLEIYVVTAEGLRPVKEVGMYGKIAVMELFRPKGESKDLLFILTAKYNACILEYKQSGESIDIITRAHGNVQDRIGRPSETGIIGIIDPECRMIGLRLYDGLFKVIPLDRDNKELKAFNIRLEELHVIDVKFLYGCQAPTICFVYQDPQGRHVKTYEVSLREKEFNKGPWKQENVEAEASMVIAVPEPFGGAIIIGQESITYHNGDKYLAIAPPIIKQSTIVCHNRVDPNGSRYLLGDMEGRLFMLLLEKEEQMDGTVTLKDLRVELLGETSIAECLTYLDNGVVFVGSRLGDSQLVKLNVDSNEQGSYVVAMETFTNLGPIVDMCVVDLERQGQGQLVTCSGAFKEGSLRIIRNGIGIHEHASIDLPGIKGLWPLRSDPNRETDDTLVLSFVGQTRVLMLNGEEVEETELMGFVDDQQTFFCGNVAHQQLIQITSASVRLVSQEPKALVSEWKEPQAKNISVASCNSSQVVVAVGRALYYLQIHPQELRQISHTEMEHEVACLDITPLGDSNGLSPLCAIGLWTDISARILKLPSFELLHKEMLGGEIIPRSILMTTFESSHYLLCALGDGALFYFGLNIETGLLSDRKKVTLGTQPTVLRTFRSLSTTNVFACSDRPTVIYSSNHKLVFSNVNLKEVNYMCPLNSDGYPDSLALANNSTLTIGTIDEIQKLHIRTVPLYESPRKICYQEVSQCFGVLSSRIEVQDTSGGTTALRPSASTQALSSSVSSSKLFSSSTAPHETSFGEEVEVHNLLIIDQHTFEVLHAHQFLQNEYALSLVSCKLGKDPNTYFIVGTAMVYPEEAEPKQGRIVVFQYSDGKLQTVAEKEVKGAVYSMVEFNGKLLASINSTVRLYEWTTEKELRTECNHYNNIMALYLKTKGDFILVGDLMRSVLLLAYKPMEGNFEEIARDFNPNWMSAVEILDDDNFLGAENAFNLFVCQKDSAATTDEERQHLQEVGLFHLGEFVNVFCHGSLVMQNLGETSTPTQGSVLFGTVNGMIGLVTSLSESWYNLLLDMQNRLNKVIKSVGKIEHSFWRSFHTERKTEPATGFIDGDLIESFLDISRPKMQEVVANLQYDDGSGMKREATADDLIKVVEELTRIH
Listed here: items and their measured DC50.

compound: CC(C)(C)[C@H]1C[C@H](NC(=O)OCc2ccc3c(c2)C(=O)N(C2CCC(=O)NC2=O)C3)C1 (stereo partly shown)
DC50: > 300 nM
//
compound: CC(C)(C)[C@H]1C[C@@H](NC(=O)OCc2ccc3c(c2)C(=O)N(C2CCC(=O)NC2=O)C3)C1 (stereo partly shown)
DC50: > 300 nM
//
compound: O=C1CCC(N2Cc3ccc(COC(=O)Nc4cccc(OC(F)(F)F)c4F)cc3C2=O)C(=O)N1 (stereo not shown)
DC50: 30 to 300 nM
//
compound: O=C1CCC(N2Cc3ccc(COC(=O)Nc4cc(OC(F)(F)F)c(F)cc4F)cc3C2=O)C(=O)N1 (stereo not shown)
DC50: 30 to 300 nM
//
compound: CC(C)(O)c1ccc(NC(=O)OCc2ccc3c(c2)C(=O)N(C2CCC(=O)NC2=O)C3)cn1 (stereo not shown)
DC50: > 300 nM
//
compound: Cc1cc(F)c(NC(=O)OCc2ccc3c(c2)C(=O)N(C2CCC(=O)NC2=O)C3)cc1Br (stereo not shown)
DC50: 30 to 300 nM
//
compound: CC(C)(C)Oc1ccc(F)c(NC(=O)OCc2ccc3c(c2)C(=O)N(C2CCC(=O)NC2=O)C3)c1 (stereo not shown)
DC50: 30 to 300 nM
